log10 of Ki values, listed per item
Target: Adenosine receptor A2a (Homo sapiens, UniProt P29274)
Sequence (P29274 whole entry): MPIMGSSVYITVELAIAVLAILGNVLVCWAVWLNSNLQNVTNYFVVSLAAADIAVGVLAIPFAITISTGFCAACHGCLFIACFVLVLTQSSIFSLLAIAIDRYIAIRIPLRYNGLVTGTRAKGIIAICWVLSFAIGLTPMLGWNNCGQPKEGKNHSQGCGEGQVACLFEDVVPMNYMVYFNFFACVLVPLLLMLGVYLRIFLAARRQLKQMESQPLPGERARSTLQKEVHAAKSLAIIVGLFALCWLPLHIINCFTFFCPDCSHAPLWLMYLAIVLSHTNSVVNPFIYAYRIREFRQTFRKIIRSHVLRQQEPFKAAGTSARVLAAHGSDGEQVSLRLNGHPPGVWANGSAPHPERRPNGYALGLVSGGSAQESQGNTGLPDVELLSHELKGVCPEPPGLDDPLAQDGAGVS
Test: biochemical
readoutName: log10 of Ki (log10 of the value in nM)

INSERT INTO results (entrysmiles, measuredvalue) VALUES
  ('Nc1nc2c(cnn2CCCc2ccc([N+](=O)[O-])cc2)c2nc(-c3ccco3)nn12', 0.00),
  ('CCOC(=O)COc1ccc(CCn2ncc3c2nc(N)n2nc(-c4ccco4)nc32)cc1', -0.37),
  ('Nc1nc2c(cnn2CCCc2ccc(C(=O)O)cc2)c2nc(-c3ccco3)nn12', 0.64),
  ('Nc1ccc(CCn2ncc3c2nc(N)n2nc(-c4ccco4)nc32)cc1', -0.89),
  ('NCc1ccc(CCCn2ncc3c2nc(N)n2nc(-c4ccco4)nc32)cc1', 0.78),
  ('Nc1ccc(CCCn2ncc3c2nc(N)n2nc(-c4ccco4)nc32)cc1', -0.66),
  ('CC(=O)Nc1ccc(CCn2ncc3c2nc(N)n2nc(-c4ccco4)nc32)cc1', 0.68),
  ('CCOC(=O)c1ccc(CCCn2ncc3c2nc(N)n2nc(-c4ccco4)nc32)cc1', 0.60),
  ('N/C(=N/O)c1ccc(CCCn2ncc3c2nc(N)n2nc(-c4ccco4)nc32)cc1', 0.78),
  ('Nc1nc2c(cnn2CCCc2ccc(N(CCO)CCO)cc2)c2nc(-c3ccco3)nn12', 0.04);

---

Biological target: Adenosine receptor A2a (Homo sapiens, UniProt P29274)
Assay: biochemical
pKi: −log10 of the molar value.
Examples of compounds with documented pKi follow.
readoutName: pKi

INSERT INTO measurements (entrysmiles, readoutname, measuredvalue) VALUES
  ('Nc1nc2c(cnn2CCc2ccc(S(=O)(=O)O)cc2)c2nc(-c3ccco3)nn12', 'pKi', 7.00),
  ('Nc1nc2c(cnn2CCCc2ccccc2)c2nc(-c3ccco3)nn12', 'pKi', 8.92),
  ('Nc1nc2c(cnn2CCc2ccc(S(=O)(=O)N(CCCl)CCCl)cc2)c2nc(-c3ccco3)nn12', 'pKi', 9.23),
  ('Nc1nc2c(cnn2CCc2ccc(N(CCO)CCO)cc2)c2nc(-c3ccco3)nn12', 'pKi', 9.92),
  ('N/C(=N\O)c1ccc(CCn2ncc3c2nc(N)n2nc(-c4ccco4)nc32)cc1', 'pKi', 9.74),
  ('N#Cc1ccc(CCCn2ncc3c2nc(N)n2nc(-c4ccco4)nc32)cc1', 'pKi', 7.07),
  ('Nc1nc2c(cnn2CCc2ccc(S(N)(=O)=O)cc2)c2nc(-c3ccco3)nn12', 'pKi', 8.88),
  ('N=C(N)c1ccc(CCCn2ncc3c2nc(N)n2nc(-c4ccco4)nc32)cc1', 'pKi', 7.26);

---

Target: Adenosine receptor A2a (Homo sapiens)
Experiment: biochemical
pKi: −log10 of the molar value.
readoutName: pKi

INSERT INTO measurements (entrysmiles, readoutname, measuredvalue) VALUES
  ('CN1CCN(S(=O)(=O)c2ccc(CCn3ncc4c3nc(N)n3nc(-c5ccco5)nc43)cc2)CC1', 'pKi', 8.42);

---

Biological target: Adenosine receptor A1 (Homo sapiens)
Sequence (P30542 whole entry): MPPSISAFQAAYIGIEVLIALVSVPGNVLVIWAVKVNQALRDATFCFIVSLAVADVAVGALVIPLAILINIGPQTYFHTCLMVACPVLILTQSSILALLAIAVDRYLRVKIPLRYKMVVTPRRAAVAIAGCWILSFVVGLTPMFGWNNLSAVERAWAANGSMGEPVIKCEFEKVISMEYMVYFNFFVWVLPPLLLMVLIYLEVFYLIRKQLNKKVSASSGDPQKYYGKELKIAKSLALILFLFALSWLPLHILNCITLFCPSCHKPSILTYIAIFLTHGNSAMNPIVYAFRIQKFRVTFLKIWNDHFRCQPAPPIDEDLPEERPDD
Assay: Displacement of [3H]DPCPX from human Adenosine A1 receptor expressed in CHO cells; ranges from 9038-9773
Format: cell-based
readoutName: Ki (µM)

INSERT INTO results (entrysmiles, outputunit, measuredvalue) VALUES
  ('Nc1nc2c(cnn2CCCc2ccc3c(c2)OC(C(=O)O)(C(=O)O)O3)c2nc(-c3ccco3)nn12', 'µM', 9.4);
